system under test: Recombinant human renin (Homo sapiens)
Construct: isolate the active form (residues 67-406)
Sequence (P00797 67-406): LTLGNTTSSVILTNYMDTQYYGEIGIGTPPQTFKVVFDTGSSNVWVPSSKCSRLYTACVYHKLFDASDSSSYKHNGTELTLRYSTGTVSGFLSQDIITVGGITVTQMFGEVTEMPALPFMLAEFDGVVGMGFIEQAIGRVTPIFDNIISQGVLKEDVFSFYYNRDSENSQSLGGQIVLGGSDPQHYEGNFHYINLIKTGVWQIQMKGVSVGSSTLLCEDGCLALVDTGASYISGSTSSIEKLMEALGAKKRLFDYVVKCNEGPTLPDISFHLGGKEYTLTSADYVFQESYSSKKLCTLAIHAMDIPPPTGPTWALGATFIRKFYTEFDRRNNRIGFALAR
protocol notes: In vitro enzymatic activity assay of renin inhibitors (fluorogenic peptide substrate)
measurement parameters: recombinant human renin 3 nM, substrate 1 μM, 37° C., pH 7.4, fluorescence; read-out: IC50 of Exemplified Compounds Against Renin
Excerpt: Test compounds in varying concentrations may be reacted with recombinant human renin in the presence of substrate, e.g., QXL520-γ-Abu-Ile-His-Pro-Phe-His-Leu-Val-Ile-His-Thr-Lys (HiLyteFluo488)-Arg-OH (Anaspec, San Jose, Calif.). The reaction can be followed kinetically using fluorescence (excitation λ=485 nm; emission λ=538 nm) Inhibition constants (IC50) may be calculated by non-linear curve fitting of the compound concentrations and fluorescence intensities to the standard IC50 equation. […]
observable: IC50

Answered cases to consult:
[[record]]
compound = "O=C(C1=C(c2cccc(-c3ccccc3)c2)CCNC1CO)N(Cc1cccc(Cl)c1Cl)C1CC1 (stereo not shown) [Compound 1]"
observable = "IC50"
value_observed = "> 1000 nM"

[[record]]
compound = "O=C(C1=C(c2ccc(OCCOc3c(Cl)cccc3Cl)cc2)CCN[C@@H]1CO)N(Cc1cccc(Cl)c1Cl)C1CC1 [Compound 6]"
observable = "IC50"
value_observed = "< 100 nM"


Batch lookup, IC50 per entry.
1. COCOC[C@H]1NCCC(c2ccc(OCCOc3c(C)cccc3C)cc2)=C1C(=O)N(Cc1cccc(Cl)c1Cl)C1CC1 [Compound 8]
2. Cc1cccc(C)c1OCCOc1ccc(C2=C(C(=O)N(Cc3cccc(Cl)c3Cl)C3CC3)[C@@H](CO)NCC2)cc1 [Compound 7]
3. Cc1cc(Cl)c(OCCOc2ccc(C3=C(C(=O)N(Cc4cccc(Cl)c4Cl)C4CC4)[C@@H](CO)NCC3)cc2)c(Cl)c1 [Compound 9]
4. COc1ccc(C2=C(C(=O)N(Cc3cccc(Cl)c3Cl)C3CC3)[C@@H](CO)NCC2)cc1 [Compound 13]
5. NC[C@H]1NCCC(c2ccc(OCCOc3c(Cl)cccc3Cl)cc2)=C1C(=O)N(Cc1cccc(Cl)c1Cl)C1CC1 [Compound 14]
6. O=C(C1=C(c2ccc(O)cc2)CCN[C@@H]1CO)N(Cc1cccc(Cl)c1Cl)C1CC1 [Compound 12]

1. < 100 nM
2. < 100 nM
3. < 100 nM
4. > 1000 nM
5. 100 to 1000 nM
6. > 1000 nM

Parameter requested: IC50. Apply to each item below.
1. COCOC[C@H]1NCCC(c2cccc(-c3ccccc3)c2)=C1C(=O)N(Cc1cccc(Cl)c1Cl)C1CC1 [Compound 4]
2. COCOC[C@H]1NCCC(c2ccc(OCCOc3c(Cl)cc(C)cc3Cl)cc2)=C1C(=O)N(Cc1cccc(Cl)c1Cl)C1CC1 [Compound 10]

["100 to 1000 nM", "< 100 nM"]
